Origin of the recorded values: paper PMC9737772

Reported values of melting point for individual entries
REPORTED_METRIC: melting point

STRUCTURE_NOTATION	REPORTED_METRIC	REPORTED_MEASUREMENT
CN1CC(=O)N(C(=O)/C=C/c2ccco2)C1=O	melting point	128.9 to 129.8 °C
CN1CC(=O)N(C(=O)C=Cc2ccccc2)C1=O	melting point	140.6 to 141.5 °C
CN1CC(=O)N(C(=O)/C=C/c2ccc3c(c2)OCO3)C1=O	melting point	164.8 to 166.1 °C
COc1cc(/C=C/C(=O)N2C(=O)CN(C)C2=O)ccc1OC(C)=O	melting point	148.3 to 149.8 °C
CC(=O)Oc1ccc(/C=C/C(=O)N2C(=O)CN(C)C2=O)cc1	melting point	148.9 to 149.6 °C
